Readings of self-cleavage for the listed variants
B1: HDV Ribozyme (parent)
chain: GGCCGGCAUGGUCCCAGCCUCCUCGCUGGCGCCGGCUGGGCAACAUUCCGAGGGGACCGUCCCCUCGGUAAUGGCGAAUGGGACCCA

variants of: B1; assay: self-cleavage, relative activity (ratio to wild type); higher = more cleavage; co-transcriptional
Could you keep your reply to the number by itself?

(Q) Please look up its self-cleavage: C19A C44G
(A) 0.0615

(Q) Could you do the same for C22A C49A , please?
(A) 0.128

(Q) Now the variant C44A U72G
(A) 0.431

(Q) Okay, and C19G A78C ?
(A) 0.119

(Q) Here is the next variant: C21G C86U
(A) 0.0791
